assayed_target: Tyrosine-protein kinase JAK1 (Homo sapiens, UniProt P23458); note: in the data inactive means no Kd found up to 30 µM
Sequence (P23458 whole entry): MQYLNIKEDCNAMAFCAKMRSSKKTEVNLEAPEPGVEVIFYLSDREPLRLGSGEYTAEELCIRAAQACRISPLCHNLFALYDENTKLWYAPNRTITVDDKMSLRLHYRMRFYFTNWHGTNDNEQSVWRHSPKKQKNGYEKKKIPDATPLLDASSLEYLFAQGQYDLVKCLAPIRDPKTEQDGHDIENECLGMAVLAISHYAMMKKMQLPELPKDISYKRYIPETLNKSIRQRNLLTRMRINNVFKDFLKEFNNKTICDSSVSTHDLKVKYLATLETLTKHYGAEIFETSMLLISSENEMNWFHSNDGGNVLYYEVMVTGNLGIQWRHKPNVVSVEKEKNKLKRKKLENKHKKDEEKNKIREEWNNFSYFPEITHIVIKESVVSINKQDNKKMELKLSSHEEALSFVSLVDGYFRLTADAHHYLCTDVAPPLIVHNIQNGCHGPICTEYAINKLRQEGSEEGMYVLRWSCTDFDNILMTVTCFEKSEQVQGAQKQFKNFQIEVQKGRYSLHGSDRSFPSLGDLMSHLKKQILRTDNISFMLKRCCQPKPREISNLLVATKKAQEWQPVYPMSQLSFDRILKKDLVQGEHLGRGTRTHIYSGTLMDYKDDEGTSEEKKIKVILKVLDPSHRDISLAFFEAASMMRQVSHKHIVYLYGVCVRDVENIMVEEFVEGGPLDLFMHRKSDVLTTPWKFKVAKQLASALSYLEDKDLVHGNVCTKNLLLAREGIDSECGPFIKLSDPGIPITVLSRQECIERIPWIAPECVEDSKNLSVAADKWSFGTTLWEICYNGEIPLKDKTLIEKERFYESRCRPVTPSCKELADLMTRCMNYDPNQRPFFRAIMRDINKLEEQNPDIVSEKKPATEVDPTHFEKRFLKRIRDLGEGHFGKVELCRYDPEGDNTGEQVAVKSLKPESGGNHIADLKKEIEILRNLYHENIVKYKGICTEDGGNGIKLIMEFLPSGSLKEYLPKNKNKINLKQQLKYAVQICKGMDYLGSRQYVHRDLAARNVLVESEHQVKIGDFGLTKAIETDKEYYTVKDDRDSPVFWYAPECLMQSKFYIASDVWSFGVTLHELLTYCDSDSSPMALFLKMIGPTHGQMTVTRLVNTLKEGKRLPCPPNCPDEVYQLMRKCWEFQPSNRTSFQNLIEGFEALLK
The source made the active and inactive calls.
Reply using exactly one outcome from active, inactive

Incoming: Tell me the assay call for O=C1NC(=O)[C@@H](c2cn3c4c(cccc24)CCC3)[C@@H]1c1c[nH]c2ccccc12 [TIVANTINIB] please.
Outgoing: inactive

Incoming: Tell me the assay call for "NC(=O)Nc1cc(-c2cccc(F)c2)sc1C(=O)N[C@H]1CCCNC1" please.
Outgoing: inactive

Incoming: Tell me the assay call for "Cc1cc(Nc2ncc(Cl)c(Nc3ccccc3S(=O)(=O)C(C)C)n2)c(OC(C)C)cc1C1CCNCC1" please.
Outgoing: inactive

Incoming: Tell me the assay call for "C#Cc1cccc(Nc2ncnc3cc(OC)c(OCCCCCCC(=O)NO)cc23)c1" please.
Outgoing: inactive

Incoming: Tell me the assay call for "Cc1nc(Nc2n[nH]c3c2CN(C(=O)N[C@H](CN(C)C)c2ccccc2)C3(C)C)c2sccc2n1" please.
Outgoing: inactive
